B1: FAM50A (parent)
chain: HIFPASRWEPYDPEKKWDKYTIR

variants of: B1; assay: protein stability index of a GFP-peptide fusion (GPS, HEK-293T) (PSI 1-6); higher = more stable; conditions: c terminus: native;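 further: lentivirally expressed fusions sorted by FACS into six bins by GFP to DsRed ratio, PSI derived from sequencing read proportions per bin multiplied by bin number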
observedProperty: protein stability index
Please give the numeric answer without any surrounding text.

Known protein stability index results, listed for orientation:
# sequenceCode, measuredNumber
data = [
    ("HIFPASRWEPYDCEKKWDKYTIR [P13C]", 1.48),
    ("HIFPASRWEPYDPEKRWDKYTIR [K16R]", 2.59),
    ("HIFPASRWEPYDPDKKWDKYTIR [E14D]", 2.02),
    ("HIFPASRWEPYDVEKKWDKYTIR [P13V]", 2.72),
]

Item under review: SIFPASRWEPYDPEKKWDKYTIR [H1S] . Reported protein stability index?
2.04

What about HIFPASRWEPYDPEKKWDDYTIR [K19D] ?
2.24

Same for HIFPASRVEPYDPEKKWDKYTIR [W8V]
3.62

Try this variant next: HIFPASRWPPYDPEKKWDKYTIR [E9P]
2.57

Check YIFPASRWEPYDPEKKWDKYTIR [H1Y] too.
1.69

One more variant: HIFPASRWEPYDYEKKWDKYTIR [P13Y]
2.13

Ok, now HIFPASRWEPYDPEKKWFKYTIR [D18F]
1.55

Now the same for HIFPASRWEPYDPWKKWDKYTIR [E14W]
1.65

Quick one: HIFPASRWEPYDPEKKWIKYTIR [D18I]
2.48

Same thing, different variant: CIFPASRWEPYDPEKKWDKYTIR [H1C]
2.4

Now this one: HIFPASRWEPYDPEKKPDKYTIR [W17P]
2.56

Repeat for the following variant: HITPASRWEPYDPEKKWDKYTIR [F3T]
3

Same thing, different variant: HIFPASRWEPYDPEKKWDKETIR [Y20E]
2.02

Entry HIFPASRWEPYDPEKKWDKYTIS [R23S] please
2.1

And what about the variant HIFPASRWEPYDPEKKWDWYTIR [K19W] ?
3.02

Please answer likewise for HIFPASRWEPYDPEKKWDKYIIR [T21I]
1.74

What about this variant? HIFPASRWEPYDPEKKWDKYTIG [R23G]
2.59

Another: HIFPASRWEPYDPEKKWDKQTIR [Y20Q]
2.48

Values were extracted from the supplement of paper PMC10567573.
